- assayDetails: Solubility of SNX-2112 in water and oil
- Assay type: physicochemical
- particulars: water
recordedMetric: solubility (µg/mL)

[[record]]
molecule = "CC1(C)CC(=O)c2c(C(F)(F)F)nn(-c3ccc(C(N)=O)c(N[C@H]4CC[C@H](O)CC4)c3)c2C1 [SNX-2112]"
unitabbreviation = "µg/mL"
testresult = 8


---

- assayDetails: Solubility of SNX-2112 in water and oil
- Assay type: physicochemical
- particulars: soybean oil, oil or lipid
recordedMetric: solubility (µg/mL)

[[record]]
linenotation = "CC1(C)CC(=O)c2c(C(F)(F)F)nn(-c3ccc(C(N)=O)c(N[C@H]4CC[C@H](O)CC4)c3)c2C1"
recordedmetric = "solubility"
testresult = 5

